System: ATP;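 further: ATP exposure 15 min at 22 °C before imaging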
assay-overview: switch fluorescence ratio, 500 uM ATP over buffer (Cy3 cluster intensity, sum of 5 cycles each) (fold (ratio)); higher = stronger signal-on switching upon ATP binding; sequences stand for … in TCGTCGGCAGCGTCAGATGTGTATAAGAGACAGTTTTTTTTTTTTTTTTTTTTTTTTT…TC
cond: aptamer strand: ATP DNA aptamer (quencher-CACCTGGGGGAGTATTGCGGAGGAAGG + anchor), 100 nM annealed; ATP concentration: 500 uM
Quick reference: switch fluorescence ratio of the listed items.
Output spec: single numeric token, no unit.

Recorded results for 8 sequences are shown here.
monomer_sequence=GCTTTTCATT metric_name="switch fluorescence ratio" recorded_number=0.988
monomer_sequence=CTGGGCTTAG metric_name="switch fluorescence ratio" recorded_number=0.982
monomer_sequence=ATCACAATTT metric_name="switch fluorescence ratio" recorded_number=1.04
monomer_sequence=GAATATATGT metric_name="switch fluorescence ratio" recorded_number=1.04
monomer_sequence=ACCTCTTGGG metric_name="switch fluorescence ratio" recorded_number=0.94
monomer_sequence=AGCTTTTGGG metric_name="switch fluorescence ratio" recorded_number=0.979
monomer_sequence=CGGCTATGTT metric_name="switch fluorescence ratio" recorded_number=0.971
monomer_sequence=TGAAAATCTT metric_name="switch fluorescence ratio" recorded_number=1.18

Exam item: Record lookup: for ATP, what switch fluorescence ratio belongs to ATTATTAGTC ?
Marked response: 1.01

Exam item: // repeat for TTTTGTAGGT and report
Marked response: 0.973

Exam item: Please give the result for TGTTGACTGA too.
Marked response: 1.02

Exam item: Now try GACTCCAGGC .
Marked response: 1.22

Exam item: // query: CAAGGAGGGG
Marked response: 1.02
